Value source: PubChem BioAssay

ASSAY_OVERVIEW: DUSP6 inhibitors restoring Erk phosphorylation by chemical complementation, primary imaging in DUSP6-transfected HeLa (AID 609)
TEST_CONDITIONS: HeLa MKP-3 transfected, phospho-Erk imaging KS statistic; measured here: nuclear pErk red intensity z-score; at 10 µM; stronger effect = higher value; cells stimulated with TPA for 15 min
Assign Criterion met to entries whose z-score meets or exceeds 0.8; assign Criterion not met to the rest.

COMPOUND | CLASS_NAME
O=C1N[C@@H](Cc2cnc[nH]2)C(=O)N2CCC[C@@H]12 | Criterion not met
O=C(c1ccco1)N1CCN(c2ncnc3c2[nH]c2ccccc23)CC1 | Criterion not met
CN1CCC2(CC1)C1CN(C)CC=C1C(C#N)=C(N)C2(C#N)C#N (centres undefined) | Criterion met
Cc1ccc(N2C(=O)C3ON(c4ccccc4)C(c4ccncc4)C3C2=O)c(C)c1 (centres undefined) | Criterion not met
CCOC(=O)c1ccc(-n2c(=O)[nH]c3ccccc3c2=O)cc1 | Criterion not met
CCN(CC)S(=O)(=O)c1cccc2c(N(C)C)cccc12 | Criterion met
CC(NCCc1ccc(O)cc1)C(O)c1ccc(O)cc1 (centres undefined) | Criterion not met
Cc1ccc(C2CC(C(F)(F)F)n3ncc(C(N)=O)c3N2)cc1 (centres undefined) | Criterion met
CCOC(=O)COc1nc(N(C)C)nc(N(C)C)n1 | Criterion not met
CCc1ccc2c(c1)C(C)=CC(C)(C)N2 | Criterion met
[N-]=[N+]=CC(=O)c1ccnc(C(=O)C=[N+]=[N-])c1 | Criterion not met
Cn1c(-n2c(-c3ccco3)nc3ccccc3c2=O)nc2ccccc21 | Criterion not met
CNCCCC12CCC(c3ccccc31)c1ccccc12 | Criterion met
COc1ccc2nc(S(=O)Cc3ncc(C)c(OC)c3C)[nH]c2c1 (centres undefined) | Criterion not met
O=C(O)CC(C(=O)N(c1ccccc1)c1ccccc1)N1CCOCC1 (centres undefined) | Criterion met
c1ccc2c(CC3=NCCN3)cccc2c1 | Criterion met
CCC(=O)Nc1cc(-c2nn(C)c(=O)c3ccccc23)ccc1N1CCCCC1 | Criterion met
CC1CN(C2CCN(C(=O)COc3ccccc3)CC2)CC(C)O1 (centres undefined) | Criterion not met
COc1ccc(C2=CC(c3cccc(OC)c3)n3nnnc3N2)cc1 (centres undefined) | Criterion not met
CCOc1cccc(-c2nnc3sc(-c4ccc(C)cc4)nn23)c1 | Criterion met
COc1ccccc1C(=O)N1CCCC1(C#N)c1ccccc1 (centres undefined) | Criterion not met
CC[N+](C)(CC)CCOC(=O)C(O)(c1ccccc1)C1CCCCC1 (centres undefined) | Criterion not met
c1ccc(-c2nnc3sc(Cc4cccs4)nn23)cc1 | Criterion not met
